Cited source for all entries: patent US20240018146A1

# System: HeLa MKYP cells
# Assay method text: Cell death measured by DAPI staining, with 1 μM FCCP/oligomycin or no toxin (no FO)
# Type: cell-based
# Settings: with 1 μM FO
Readout label: Max % death with 1 μM FO
// return the numeric value with its unit appended

Qu. Could you please provide reported Max % death with 1 μM FO for C[C@@H]1CN([C@H]2CCc3ccccc3[C@@H]2Nc2ncnc3[nH]c(C(F)(F)F)cc23)CCO1 (single isomer, unassigned) ? Thanks!
Ans. 19.4%

Qu. Input OC(C1CCOCC1)C1COc2ccccc2C1Nc1ncnc2[nH]c(C(F)(F)F)cc12 (single isomer, unassigned) [EP-0041269] , output reported Max % death with 1 μM FO.
Ans. 2.9%

Qu. Assign Max % death with 1 μM FO to the following record: OC[C@@H]1CCCN1[C@H]1CCc2ccccc2[C@@H]1Nc1ncnc2[nH]c(C(F)(F)F)cc12 (single isomer, unassigned)
Ans. 6.2%

Qu. Dear colleague, please send me the reported Max % death with 1 μM FO for COC[C@H]1CCCN1[C@H]1COc2ccccc2[C@@H]1Nc1ncnc2[nH]c(C(F)(F)F)cc12 when you can.
Ans. 5.7%

Qu. Please supply the value of reported Max % death with 1 μM FO for the item Cc1ccc2c(c1)OC[C@H](N1CCOCC1)[C@H]2Nc1ncnc2[nH]c(C(F)(F)F)cc12 (racemic)
Ans. 7.7%

Qu. Quote Max % death with 1 μM FO reported for COC1CN([C@H]2COc3ccccc3[C@@H]2Nc2ncnc3[nH]c(C4CC4)cc23)C1 [EP-0040702] please.
Ans. 7.7%

Qu. // Input: CC(C)OC1CN([C@H]2COc3ccccc3[C@@H]2Nc2ncnc3[nH]c(C(F)(F)F)cc23)C1 . Output its Max % death with 1 μM FO only.
Ans. 4.6%

Qu. Provide one value: measured Max % death with 1 μM FO of FC(F)OC1CN([C@H]2COc3ccccc3[C@@H]2Nc2ncnc3[nH]c(C(F)(F)F)cc23)C1 (racemic) [EP-0041354]
Ans. 12.4%

Qu. Quick one: give measured Max % death with 1 μM FO for FC1COCCC1[C@H]1COc2ccccc2[C@@H]1Nc1ncnc2[nH]c(C(F)(F)F)cc12 (single isomer, unassigned) [EP-0041325]
Ans. 5.5%
